// data source = ChEMBL document CHEMBL1777748

Would you kindly list hepatocyte CLint for each of these molecules?
- ASSAY SUMMARY: Intrinsic clearance in rat hepatocytes assessed per 1 x 10^6 cells

[[record]]
query_smiles = "CCS(=O)(=O)c1ccc(-c2cc(Cl)ccc2OCC(=O)O)c(Cl)c1"
value_measured = "< 3 µL/min/1e6 cells"

[[record]]
query_smiles = "Cc1ccc(OCC(=O)O)c(-c2ccccc2)c1"
value_measured = "< 3 µL/min/1e6 cells"

[[record]]
query_smiles = "O=C(O)COc1ccc(C(F)(F)F)cc1-c1ccccc1-c1ccccc1"
value_measured = "20 µL/min/1e6 cells"

[[record]]
query_smiles = "CCS(=O)(=O)c1ccc(-c2cc(C(F)(F)F)ccc2CCC(=O)O)c(C)c1"
value_measured = "25 µL/min/1e6 cells"


Prompt line: For the molecule shown here, CCS(=O)(=O)c1ccc(-c2cc(C(F)(F)F)ccc2O[C@H](C)C(=O)O)c(Cl)c1 , give the reported hepatocyte CLint.
Response line: < 3 µL/min/1e6 cells

* * *

- ASSAY SUMMARY: Aqueous solubility of the compound in buffer at pH 7.4
- Type: physicochemical
ENDPOINT NAME: solubility

Prompt line: Fill in: solubility of O=C(O)COc1ccc(C(F)(F)F)cc1-c1ccccc1 is ___
Response line: > 80 µM

* * *

- ASSAY SUMMARY: Lipophilicity, log D of the compound at pH 7.4
- STATED CONDITIONS: buffer
ENDPOINT NAME: logD
Give bare numbers.

[[record]]
compound = "O=C(O)COc1ccc(C(F)(F)F)cc1-c1ccc(Cl)cc1"
value_measured = 0.9

[[record]]
compound = "Cc1ccc(C#N)cc1-c1cc(C(F)(F)F)ccc1OCC(=O)O"
value_measured = 0.2

[[record]]
compound = "CCS(=O)(=O)c1ccc(-c2cc(C(F)(F)F)ccc2O[C@H](C)C(=O)O)c(Cl)c1"
value_measured = 0


Your task in this section: give logD for each listed record.
1. O=C(O)COc1ccc(C(F)(F)F)cc1-c1ccccc1-c1ccccc1
2. COc1ccc(-c2cc(C(F)(F)F)ccc2OCC(=O)O)cc1
3. CCN(CC)S(=O)(=O)c1ccc(-c2cc(C(F)(F)F)ccc2OCC(=O)O)cc1
4. CCC(Oc1ccc(C(F)(F)F)cc1-c1ccc(S(=O)(=O)CC)cc1C)C(=O)O (centres undefined)
5. CCS(=O)(=O)c1ccc(-c2cc(C(F)(F)F)ccc2OCC(N)=O)c(C)c1

Response line:
1: 1.4; 2: 0.3; 3: 0.7; 4: 0.3; 5: 2.8

Prompt line: What logD value was documented for this compound, N#Cc1cccc(-c2cc(C(F)(F)F)ccc2OCC(=O)O)c1 ?
Response line: 0.1

* * *

- ASSAY SUMMARY: Intrinsic clearance in human liver microsomes
- STATED CONDITIONS: liver microsomes
ENDPOINT NAME: microsomal CLint (µL/min/mg)
Answers are plain numbers, in µL/min/mg.

[[record]]
query_smiles = "O=C(O)COc1ccc(C(F)(F)F)cc1-c1ccc2c(c1)CCS2(=O)=O"
endpoint_name = "microsomal CLint"
readout_units = "µL/min/mg"
value_measured = 6

[[record]]
query_smiles = "CCS(=O)(=O)c1cccc(-c2cc(C(F)(F)F)ccc2OCC(=O)O)c1"
endpoint_name = "microsomal CLint"
readout_units = "µL/min/mg"
value_measured = 12

[[record]]
query_smiles = "CS(=O)(=O)c1ccc(-c2cc(Cl)ccc2OCC(=O)O)c(Cl)c1"
endpoint_name = "microsomal CLint"
readout_units = "µL/min/mg"
value_measured = 10


Give microsomal CLint for each of the items listed below.
1. O=C(O)COc1ccc(C(F)(F)F)cc1-c1ccc(Cl)cc1
2. CCS(=O)(=O)c1ccc(-c2cc(Cl)ccc2OCC(=O)O)cc1

Response line:
11
7

* * *

- ASSAY SUMMARY: Intrinsic clearance in rat hepatocytes assessed per 1 x 10^6 cells
ENDPOINT NAME: hepatocyte CLint (µL/min/1e6 cells)
One number for each entry, in µL/min/1e6 cells.

Known hepatocyte CLint results, listed for orientation:
[[record]]
query_smiles = "CCCCOc1ccccc1-c1cc(C(F)(F)F)ccc1OCC(=O)O"
endpoint_name = "hepatocyte CLint"
value_measured = 9

[[record]]
query_smiles = "O=C(O)COc1ccc(Br)cc1-c1ccccc1"
endpoint_name = "hepatocyte CLint"
value_measured = 7

[[record]]
query_smiles = "CS(=O)(=O)c1ccc(-c2cc(Cl)ccc2OCC(=O)O)c(Cl)c1"
endpoint_name = "hepatocyte CLint"
value_measured = 5


Quick request: hepatocyte CLint for each listed item, please.
1. CCN(CC)S(=O)(=O)c1ccc(-c2cc(C(F)(F)F)ccc2OCC(=O)O)cc1
2. COc1ccc(-c2cc(C(F)(F)F)ccc2OCC(=O)O)cc1
3. O=C(O)COc1ccc(C(F)(F)F)cc1-c1ccccc1
4. CCS(=O)(=O)c1ccc(-c2cc(C(F)(F)F)ccc2OCC(N)=O)c(C)c1

Response line:
18
47
3
29

* * *

- STUDY SYSTEM: Prostaglandin D2 receptor 2 (Homo sapiens)
- Sequence (Q9Y5Y4 whole entry): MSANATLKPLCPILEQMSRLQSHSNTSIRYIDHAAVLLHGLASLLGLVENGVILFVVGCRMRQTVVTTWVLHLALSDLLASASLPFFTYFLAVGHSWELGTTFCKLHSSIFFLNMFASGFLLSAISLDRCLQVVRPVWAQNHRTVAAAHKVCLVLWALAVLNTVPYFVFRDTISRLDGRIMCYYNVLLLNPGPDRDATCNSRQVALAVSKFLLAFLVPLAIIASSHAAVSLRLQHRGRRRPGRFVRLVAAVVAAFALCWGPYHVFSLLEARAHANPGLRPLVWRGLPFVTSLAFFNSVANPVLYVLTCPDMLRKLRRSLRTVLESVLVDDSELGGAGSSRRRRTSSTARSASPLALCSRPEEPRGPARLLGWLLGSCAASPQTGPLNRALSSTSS
- ASSAY SUMMARY: Displacement of [3H]-PGD2 from CRTh2 receptor by scintillation proximity assay
// classify: if (IC50 < 40 nM) t else f

Previously resolved entries follow.
[[record]]
query_smiles = "CCS(=O)(=O)c1ccc(-c2cc(C(F)(F)F)ccc2OCC(=O)O)c(Cl)c1"
class = "t"

[[record]]
query_smiles = "CCS(=O)(=O)c1ccc(-c2cc(Cl)ccc2OCC(=O)O)c(C(F)(F)F)c1"
class = "f"

[[record]]
query_smiles = "CCS(=O)(=O)c1ccc(-c2cc(Cl)ccc2OCC(=O)O)cc1"
class = "t"

[[record]]
query_smiles = "CCS(=O)(=O)c1ccc(-c2cc(C(F)(F)F)ccc2O[C@H](C)C(=O)O)c(Cl)c1"
class = "t"

[[record]]
query_smiles = "CS(=O)(=O)c1ccc(OCC(=O)O)c(-c2ccccc2)c1"
class = "f"

[[record]]
query_smiles = "Cc1cc(N(C)S(C)(=O)=O)ccc1-c1cc(C(F)(F)F)ccc1OCC(=O)O"
class = "t"

[[record]]
query_smiles = "O=C(O)COc1ccc(C(F)(F)F)cc1-c1ccccc1"
class = "f"

[[record]]
query_smiles = "CCS(=O)(=O)c1ccc(-c2cc(C(F)(F)F)ccc2CCC(=O)O)c(C)c1"
class = "t"

[[record]]
query_smiles = "CCS(=O)(=O)c1ccc(-c2cc(C(F)(F)F)ccc2OCc2nnn[nH]2)c(C)c1"
class = "f"


Prompt line: Lab note: IC50 threshold 40 nM. Does this molecule come in strictly under it? CCS(=O)(=O)c1ccc(-c2cc(C(F)(F)F)ccc2OCC(=O)O)c(C)c1
Response line: t

* * *

Exercise: state measured microsomal CLint for each of the molecules provided.
- ASSAY SUMMARY: Intrinsic clearance in human liver microsomes
- STATED CONDITIONS: microsomes

Take a look at these entries with their results.
[[record]]
query_smiles = "O=C(O)COc1ccc(C(F)(F)F)cc1-c1ccccc1-c1ccccc1"
endpoint_name = "microsomal CLint"
value_measured = "< 3 µL/min/mg"

[[record]]
query_smiles = "CCS(=O)(=O)c1ccc(-c2cc(Cl)ccc2OCC(=O)O)c(F)c1"
endpoint_name = "microsomal CLint"
value_measured = "< 3 µL/min/mg"

[[record]]
query_smiles = "N#Cc1cccc(-c2cc(Cl)ccc2OCC(=O)O)c1"
endpoint_name = "microsomal CLint"
value_measured = "< 3 µL/min/mg"


Parameter requested: microsomal CLint. Apply to each item below.
1. CCc1ccc(OCC(=O)O)c(-c2ccc(S(C)(=O)=O)cc2)c1
2. N#Cc1ccc(F)c(-c2cc(C(F)(F)F)ccc2OCC(=O)O)c1
3. Cc1ccc(C#N)cc1-c1cc(C(F)(F)F)ccc1OCC(=O)O

Response line:
1. < 3 µL/min/mg
2. < 4 µL/min/mg
3. < 3 µL/min/mg

* * *

- ASSAY SUMMARY: Oral bioavailability in dog
- Type: ADME, organism-based, Canis lupus familiaris
- STATED CONDITIONS: in vivo
ENDPOINT NAME: bioavailability (%)
One number for each entry, in %.

Prompt line: Given the molecule CCS(=O)(=O)c1ccc(-c2cc(C(F)(F)F)ccc2OCC(=O)O)c(C)c1 , what is its reported bioavailability?
Response line: 46

* * *

- STUDY SYSTEM: Cytochrome P450 3A4 (Homo sapiens)
- Sequence (P08684 whole entry): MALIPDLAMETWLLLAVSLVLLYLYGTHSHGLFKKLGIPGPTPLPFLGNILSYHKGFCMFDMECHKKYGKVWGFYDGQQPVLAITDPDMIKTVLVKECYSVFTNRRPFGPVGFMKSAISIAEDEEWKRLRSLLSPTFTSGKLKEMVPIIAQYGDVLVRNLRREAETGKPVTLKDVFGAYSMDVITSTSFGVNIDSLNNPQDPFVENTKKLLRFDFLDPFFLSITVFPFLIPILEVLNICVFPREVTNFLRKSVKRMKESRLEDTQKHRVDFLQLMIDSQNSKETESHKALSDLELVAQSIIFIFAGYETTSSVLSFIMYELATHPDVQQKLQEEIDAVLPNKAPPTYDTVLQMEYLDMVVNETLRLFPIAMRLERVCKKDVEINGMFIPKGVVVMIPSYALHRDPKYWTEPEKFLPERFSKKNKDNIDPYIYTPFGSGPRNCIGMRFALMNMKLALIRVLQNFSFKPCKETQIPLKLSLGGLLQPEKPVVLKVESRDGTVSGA
ENDPOINT NAME: IC50

Prompt line: # get_value(readout='IC50', item= CCS(=O)(=O)c1ccc(-c2cc(C(F)(F)F)ccc2OCC(=O)O)c(C)c1 )
Response line: > 50 µM

* * *

- ASSAY SUMMARY: Fraction unbound in cynomolgus monkey plasma
- Assay type: ADME, cell-free, Macaca fascicularis
ENDPOINT NAME: fraction unbound
One number for each entry.

Prompt line: Bench note: what fraction unbound did CCS(=O)(=O)c1ccc(-c2cc(C(F)(F)F)ccc2OCC(=O)O)c(C)c1 show?
Response line: 0.026

* * *

- STUDY SYSTEM: Prostaglandin D2 receptor 2 (Homo sapiens)
- ASSAY SUMMARY: Displacement of [3H]-PGD2 from CRTh2 receptor by scintillation proximity assay
The label is condition met for IC50 below 100 nM and condition not met for IC50 equal to or exceeding 100 nM.

Some solved cases for reference:
[[record]]
query_smiles = "CCS(=O)(=O)c1ccc(-c2cc(C(F)(F)F)ccc2O[C@@H](C)C(=O)O)c(C)c1"
study_system = "Prostaglandin D2 receptor 2 (Homo sapiens)"
class = "condition not met"

[[record]]
query_smiles = "CS(=O)(=O)c1ccc(-c2cc(Cl)ccc2OCC(=O)O)c(Cl)c1"
study_system = "Prostaglandin D2 receptor 2 (Homo sapiens)"
class = "condition met"

[[record]]
query_smiles = "CN(c1ccc(-c2cc(F)ccc2OCC(=O)O)c(Cl)c1)S(C)(=O)=O"
study_system = "Prostaglandin D2 receptor 2 (Homo sapiens)"
class = "condition met"

[[record]]
query_smiles = "Nc1ccc(OCC(=O)O)c(-c2ccccc2)c1"
study_system = "Prostaglandin D2 receptor 2 (Homo sapiens)"
class = "condition not met"


For the next question, use this compound.
Prompt line: Lab note: confirm whether the reported IC50 for this compound is below 100 nM, equality not counting. compound: O=C(O)COc1ccc(C(F)(F)F)cc1-c1ccc2c(c1)CCS2(=O)=O
Response line: condition not met
